tested on: human Factor 7 mRNA; test: Antisense inhibition of human Factor 7 with short (14-mer) oligonucleotides in HepB3 cells, electroporation 1,000 nM; format: cell-based; settings: electroporation, 1,000 nM antisense oligonucleotide, approximately 24 hours, Factor 7 mRNA relative to untreated control cells
Strand notation (5' to 3'): a small letter for the sugar, then the base; units joined by * are phosphorothioate-linked, units joined directly phosphodiester-linked; [ ] holds rarer units or linkages, { } end groups; capitals alone tell only the bases. e = 2'-O-(2-methoxyethyl) (MOE); [5mC] = 5-methylcytosine; d = 2'-deoxy (DNA)
Recorded measurements of % Inhibition, one per entry
The answer consists of two parts: a number and, after it, its unit.

Known results for substances:
>  <SUBSTANCE>
435484 (antisense e[5mC]*e[5mC]*dT*dG*dG*dG*dT*d[5mC]*dA*dT*d[5mC]*dA*eG*e[5mC]) [compound 435484]

>  <TEST TARGET>
human Factor 7 mRNA

>  <EXPERIMENTAL READOUT>
% Inhibition

>  <RESULT>
45%

$$$$
>  <SUBSTANCE>
435756 (antisense eT*eG*d[5mC]*d[5mC]*d[5mC]*dA*dG*dG*dA*d[5mC]*dG*dG*e[5mC]*e[5mC]) [compound 435756]

>  <TEST TARGET>
human Factor 7 mRNA

>  <EXPERIMENTAL READOUT>
% Inhibition

>  <RESULT>
20%

$$$$

Kindly consider the entry below.
Tell me the measured % Inhibition of 435759 (antisense eG*eA*dG*d[5mC]*d[5mC]*dA*d[5mC]*dA*dG*dA*dG*d[5mC]*e[5mC]*eT) [compound 435759] , please. 11%
